# experimentalSystem: Large T antigen (Simian virus 40, UniProt P03070);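 also: Confirmatory-stage PubChem screen for compounds that inhibit SV40 T antigen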
# Sequence (P03070 whole entry): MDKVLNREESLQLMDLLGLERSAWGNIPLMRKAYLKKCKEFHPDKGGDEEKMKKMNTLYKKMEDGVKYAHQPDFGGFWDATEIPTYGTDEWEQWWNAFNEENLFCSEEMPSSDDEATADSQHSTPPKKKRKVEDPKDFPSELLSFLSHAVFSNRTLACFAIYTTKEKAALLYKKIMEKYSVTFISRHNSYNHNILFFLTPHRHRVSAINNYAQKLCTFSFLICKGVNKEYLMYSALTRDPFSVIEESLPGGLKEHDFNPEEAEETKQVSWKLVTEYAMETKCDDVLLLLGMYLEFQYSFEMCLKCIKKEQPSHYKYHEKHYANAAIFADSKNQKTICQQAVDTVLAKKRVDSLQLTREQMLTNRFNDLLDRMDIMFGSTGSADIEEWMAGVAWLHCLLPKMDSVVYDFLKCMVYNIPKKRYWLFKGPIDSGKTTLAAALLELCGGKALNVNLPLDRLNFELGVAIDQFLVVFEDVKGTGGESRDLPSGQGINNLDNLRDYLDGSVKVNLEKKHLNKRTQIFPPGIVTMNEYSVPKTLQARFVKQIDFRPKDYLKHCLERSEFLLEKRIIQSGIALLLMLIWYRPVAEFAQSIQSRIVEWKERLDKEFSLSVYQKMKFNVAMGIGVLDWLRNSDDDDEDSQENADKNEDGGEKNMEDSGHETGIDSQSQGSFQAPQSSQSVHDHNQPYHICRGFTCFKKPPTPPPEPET
# Type: functional, Betapolyomavirus macacae
Activity calls are given as the source filed them.
Hi there, I'd appreciate the recorded IC50 for every entry that follows.

Reference set (6 entries):
>  <compound>
CCN(CC)c1ccc(NC(=O)C2CC(=O)N(Cc3ccccc3)C2)cc1 (stereo not drawn)

>  <IC50>
14.5 µM (active)

$$$$
>  <compound>
CN1C=CC=C/C1=C(\C#N)c1nc2ccccc2[nH]1

>  <IC50>
7.7 µM (active)

$$$$
>  <compound>
CCOC(=O)N1CCN(c2ccc(O)cc2)CC1

>  <IC50>
10.2 µM (active)

$$$$
>  <compound>
Cc1ccc(-c2nc3ncccn3c2NC2CCCCC2)o1

>  <IC50>
25.9 µM (active)

$$$$
>  <compound>
CCN(CC)c1ccc(/C=N/O)cc1

>  <IC50>
6.52 µM (active)

$$$$
>  <compound>
CN(C)/C=N/C1=NN(c2cccc(C(F)(F)F)c2)CC1

>  <IC50>
13 µM (active)

$$$$

Quick request: IC50 for each listed item, please.
1. Cc1ccc(NC(=O)CN2C(=O)N/C(=C\c3cccn3-c3cccc(C(=O)O)c3)C2=O)cc1
2. COc1cc(/C=N/NC(=O)c2c(-c3ccccc3)noc2C)ccc1O

> 100 µM (active)
15 µM (active)

Quick request: IC50 for each listed item, please.
1. COc1ccc(N2CCC(CN=C(S)Nc3c(C)cc(C)cc3C)C2)cc1 (stereo not drawn)
2. CCSS(=O)(=O)c1cccc2cccnc12
3. O=C(/C=C/c1ccc(O)c(O)c1)O[C@@H]1C[C@](O)(C(=O)O)C[C@@H](O)[C@H]1O
4. NC1=NC(=O)S/C1=C\c1ccc(O)cc1

1: 19.1 µM (active); 2: > 100 µM (active); 3: 2.86 µM (active); 4: 4.59 µM (active)

Quick check: IC50 of `COc1ccc(C(=O)/C=C(\C)Nc2ccc(NC(C)=O)cc2)cc1` ?
53.3 µM (active)
